System: Plasmodium falciparum NF54 asexual blood stage
ASSAY: % inhibition of asexual blood stage proliferation (pLDH); higher = more inhibition
EXPERIMENTAL CONDITIONS: 20 µM; 72 h
Each entry gets False if its % inhibition of asexual blood stage proliferation stays under 60%, and True if its % inhibition of asexual blood stage proliferation is 60% or above.

Lookup: Identify whether the reported % inhibition of asexual blood stage proliferation of the following molecule is 60% or greater: CC1(C)[C@H](C(=O)O)N2C(=O)C[C@H]2S1(=O)=O
Found: False

Lookup: Would you say c1ccc(Cn2c(-c3ccccn3)nc3ccccc32)cc1 shows % inhibition of asexual blood stage proliferation at minimum 60%?
Found: False

Lookup: Quick check, % inhibition of asexual blood stage proliferation >= 60%? COc1cc(NCc2ccc3nc(N)nc(N)c3c2C)cc(OC)c1OC
Found: True

Lookup: Entry C[C@H]1CC[C@@]2(O)C(C)(C)[C@@H]3CC[C@@]2(C)[C@H]1C3 : is its % inhibition of asexual blood stage proliferation no less than 60%?
Found: False

Lookup: Could you verify whether the entry CC[C@H]1OC(=O)[C@H](C)[C@@H](O[C@H]2C[C@@](C)(OC)[C@@H](O)[C@H](C)O2)[C@H](C)[C@@H](O[C@@H]2O[C@H](C)C[C@H](N(C)C)[C@H]2O)[C@](C)(O)C[C@@H](C)C(=O)[C@H](C)[C@@H](O)[C@]1(C)O shows % inhibition of asexual blood stage proliferation of no less than 60%?
Found: False

###

System: Plasmodium falciparum NF54 stage IV/V gametocytes
ASSAY: % inhibition of gametocyte viability (luciferase reporter); higher = more inhibition
EXPERIMENTAL CONDITIONS: 1 µM; 48 h
Note to self: use TRUE only for % inhibition of gametocyte viability readings below 2%; a reading exactly at 2% still gets FALSE.

Previously resolved entries follow.
COMPOUND	CATEGORY
CC[C@@]1(O)C(=O)OCc2c1cc1n(c2=O)Cc2cc3c(CN(C)C)c(O)ccc3nc2-1	TRUE
O=C1C=C(c2ccccc2)S(=O)(=O)c2ccccc21	FALSE
NC(=S)N/N=C/c1ncccc1N	TRUE
O=[N+]([O-])c1cn2c(n1)OC[C@@H](OCc1ccc(OC(F)(F)F)cc1)C2	TRUE
O=C(Nc1ncc(Cc2cccc3ccccc23)s1)C1CCCCC1	TRUE
Cc1oncc1C(=O)Nc1ccc(C(F)(F)F)cc1	FALSE
COc1ccc2sc3c(c2c1)NC(C)CNC3=O (stereo not given)	TRUE
CC(C)(C)c1ccc(C(=O)NC(=O)N2CCCc3ccccc32)cc1	TRUE
Nc1nc(-c2ccccc2)nc2c1ncn2[C@@H]1O[C@H](COS(=O)(=O)NC(=O)c2ccccc2O)[C@@H](O)[C@H]1O	TRUE

Please turn your attention to the following entry.
Lookup: Regarding CC(C)/N=c1\cc2n(-c3ccc(Cl)cc3)c3ccccc3nc-2cc1Nc1ccc(Cl)cc1 , kindly confirm whether its % inhibition of gametocyte viability is beneath 2%.
Found: TRUE

###

Tested on: Plasmodium falciparum NF54 asexual blood stage
ASSAY: % inhibition of asexual blood stage proliferation (pLDH); higher = more inhibition
EXPERIMENTAL CONDITIONS: 20 µM; 72 h
Please provide measured % inhibition of asexual blood stage proliferation for the entries that follow.
Answers are plain numbers, in %.

MOLECULE	TGT	READOUT UNITS	REPORTED VALUE
CCC[C@@H]1C[C@@H](C(=O)N[C@@H]([C@H]2O[C@H](SC)[C@H](O)[C@@H](O)[C@H]2O)[C@H](C)Cl)N(C)C1	Plasmodium falciparum NF54 asexual blood stage	%	93.2
CC(C)=CCC/C(C)=C/CNCCNC1C2CC3CC(C2)CC1C3 (stereo unspecified)	Plasmodium falciparum NF54 asexual blood stage	%	93
CC[C@@H]1C(=O)OC[C@@H]1Cc1cncn1C	Plasmodium falciparum NF54 asexual blood stage	%	14.4
CCC(C)NCC(O)Cn1c2ccc(Cl)cc2c2cc(Cl)ccc21 (stereo unspecified)	Plasmodium falciparum NF54 asexual blood stage	%	81.8
CCc1nc(N)nc(N)c1C#CCc1ccccc1	Plasmodium falciparum NF54 asexual blood stage	%	97.2

Lookup: May I ask what % inhibition of asexual blood stage proliferation has been recorded for Cc1c(F)cccc1NC(=O)Nc1ccc(Cl)c(S(=O)(=O)[C@H]2CCCNC2)c1O ?
Found: 41.5

The reported numbers originate from the supplement of paper PMC7801607.
